# assay comment: Glutathione peroxidase-like activity at 10x(E -2) M concentration as NADP+/L/min
# Assay type: functional
Reported values of Activity for individual entries
quantity name: Activity (µM)

sample smiles	recorded result
Cc1nc2ccc3[nH]c4ccccc4c3c2s1	93
CS(=O)(=O)n1c2c(c3ccccc31)CCc1[se]nnc1-2	246
CCOC(=O)c1sc(SC)c2c1ccc1c3cc(OC)ccc3[nH]c12	151
COC(=O)c1cc2ccc3c(c4ccccc4n3C)c2[se]1	104
CS(=O)(=O)n1c2c(c3ccccc31)-c1nn[se]c1CC2	140
CCOC(=O)c1c2[nH]c3ccc(OC)cc3c2cc2nc(C)sc12	215
CCOC(=O)c1c2[nH]c3ccccc3c2cc2nc(C)sc12	506

====

# assay comment: Glutathione peroxidase-like activity in relative to Ebselen glutathione peroxidase-like activity
# Type: functional
# Parameters: concentration or dose not given beside the values

sample smiles	Activity, %
c1ccc2c3c([nH]c2c1)-c1ccsc1SC3	7
c1ccc2c(c1)[nH]c1c2ccc2[se]nnc21	5
O=c1c2ccccc2[se]n1-c1ccccc1	100
CS(=O)(=O)n1c2ccccc2c2c3nn[se]c3ccc21	4
c1ccc2c(c1)[nH]c1c3ccsc3ccc21	6
CS(=O)(=O)n1c2c(c3ccccc31)CCc1[se]nnc1-2	23
c1ccc2c(c1)[nH]c1c2ccc2ccsc21	2
COC(=O)c1cc2ccc3c(c4ccccc4n3C)c2[se]1	10
CS(=O)(=O)n1c2c(c3ccccc31)-c1nn[se]c1CC2	13

====

# assay comment: Glutathione peroxidase-like activity in relation to Ebselen glutathione peroxidase-like activity
# Assay type: functional
# Design: concentration or dose not given beside the values
Please note: Activity exactly at 10% is class 0. Only values below 10% get class 1.

sample smiles	category
COc1ccc2[nH]c3c(c2c1)-c1cccc(OC)c1C3=O	class 1
CCOC(=O)c1sc(SC)c2c1ccc1c3ccccc3[nH]c12	class 0
CCOC(=O)c1c2[nH]c3ccc(OC)cc3c2cc2nc(C)sc12	class 0
CCOC(=O)c1sc(SC)c2c1ccc1c3cc(OC)ccc3[nH]c12	class 0
CCOC(=O)c1c2[nH]c3ccccc3c2cc2nc(C)sc12	class 0
CCOC(=O)c1cc2ccc3c(c4ccccc4n3C)c2s1	class 0
Cn1cnc2c3[nH]c4ccccc4c3ccc21	class 1
Cc1nc2ccc3[nH]c4ccccc4c3c2s1	class 1
COc1ccc2[nH]c3c4ccsc4ccc3c2c1	class 1
COc1ccc2[nH]c3ccc4nc(C)sc4c3c2c1	class 1
CCOC(=O)c1cc2ccc3c(c4ccccc4n3C)c2o1	class 1
COc1ccc2[nH]c3c(ccc4ccsc43)c2c1	class 1
COc1cccc2c1C(=O)c1[nH]c3ccccc3c1-2	class 0
